This collection of values is drawn from patent US20230295310A1.

Experimental system: T1, human CD3e/d (human, UniProt P07766 23-126; P04234 22-105)
T1 construct: Bought soluble protein; also called hCD3e/d; human CD3/ed (Sino CT038-H2508H)
T1 sequence (P07766 23-126, chain 1 of 2): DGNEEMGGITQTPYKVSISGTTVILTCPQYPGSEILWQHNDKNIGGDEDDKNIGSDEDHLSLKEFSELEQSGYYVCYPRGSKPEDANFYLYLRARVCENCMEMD
T1 sequence (P04234 22-105, chain 2 of 2): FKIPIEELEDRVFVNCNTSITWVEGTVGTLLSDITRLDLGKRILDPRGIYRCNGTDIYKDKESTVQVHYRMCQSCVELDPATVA
Test: SPR (Carterra LSA), mAb on chip
Measurement type: Kd
Number first, unit second: that is the form wanted.

mAb 199 (antibody, V domains shown, VH and VL only) VH: QVQLVESGGGVVQPGRSLRLSCAASGFTFSGYGMHWVRQAPGKGLEWVAIIYYNGKKEYYADSVKGRFTIFRDNSKNTLYLHMNSLRAEDTAVYYCTRGEGYNWFDPWGQGTLVTVSS VL: EIVMTQSPATLSVSPGERATLSCRASQSVSRNLAWYQQKPGQAPRLLIYGASTRATGIPARFSGSGSGTEFTLTISSLQSEDFAVYYCQQYNNWPLTFGGGTKVEIK    26 nM

Task: Field request: Kd | item: mAb 173 (antibody, V domains shown, VH and VL only) VH: EVQLVESGGGLVQPGRSLRLSCAASGFTFDDYTMHWVRQVPGKGLEWVSDISWNSGSVGYADSVKGRFTISRDNAKNSLYLQMNSLRAEDTALYYCVKDSSGYGHYFHYYMDVWGKGTTVTVSS VL: DIQMTQSPSSLSASVGDRVTITCRASQSISNYLNWYQVKPGKAPKVLIYAASSLQSGVPSRFSGSGSGTDFTLTISSLQPEDFVSYYCHQSYNTPITFGQGTRLEIK
Result: 7.11 nM

Task: Field request: Kd | item: mAb 145 (antibody, V domains shown, VH and VL only) VH: QVQLVQSGAEVKKPGASVKVSCKASGYTFTNYYIHWVRQAPGQGLDWMGIINPSGGITGYAQKFQGRVTMTRDTSTTTVYMELSSLRSDDTAVYYCARGVRGNYYYYYMDVWGKGTTVTVSS VL: EIVLTQSPDFQSVTPKEKVTITCRASQSIGSKLHWYQQKPDQSPKLLIKFASQSFSGVPSRFSGSGSGTDFNLTINSLEPEDAATFYCHQSSGLPYTFGQGTKLEIK
Result: 61 nM

Task: Field request: Kd | item: mAb 114 (antibody, V domains shown, VH and VL only) VH: EVQLVESGGGLVKTGGSLRLSCVASGFSFKKAWMNWVRQAPGKGLEWVGRIKRNTDGGPADYAAPVKGRFTLSRDDSKKTLYLQMNSLKTEDTAVYYCTTLDSSSWYVGYYYMDVWGKGTTVTVSS VL: DIQMTQSPSSVSASVGDRVIITCRASQDINNWLAWYLQRPGKAPKLLIYAASSLQSGVPSRFSGSGSGTDFTLTIGSLQPEDFATYYCQQAHSLPITFGQGTRLEIQ
Result: 65.8 nM

Task: Field request: Kd | item: mAb 81 (antibody, V domains shown, VH and VL only) VH: QVQLAESGGGVVQPGRSLRLSCAASGFTFSGYGMHWVRQAPGKGLDWVAIIYYDGKNKYYADSVKGRFTISRDNSKNTLYLQMNSLRAEDTAVYYCARGGGYNWFDPWGQGTLVTVSS VL: DIQMTQSPSSLSASVGDRVTITCRPSQTISNYLNWYQQDPGKAPKLLIYAASSLQSGVPSRFSGSGSGTDFTLTISSLQPEDFATYYCQQSYSTPITFGRGTRLEIK
Result: 101 nM

Task: Field request: Kd | item: mAb 303 (antibody, V domains shown, VH and VL only) VH: EVHLLESGGGLVQPGGSLRLSCAASGFTFSSYAMNWVRQAPGKGLEWISIISGGRRSGITYYAASVKGRFTISRDNSKNTLDLQMNSLRAEDTAVYYCAKMYNYYYYYIDVWGKGTTVTVSS VL: SYELTQPLSVSVALGQTARITCGGNNIGSKDVHWYQQKPGQAPVLVIYRDSNRPSGIPERFSGSNSGNTATLTISRAQAGDEADYYCQVWDSNTAVFGGGTQLTAL
Result: 47 nM

Task: Field request: Kd | item: mAb 96 (antibody, V domains shown, VH and VL only) VH: QAHLVESGGGVVQPGRSLRLSCSASGFTFSGYGMHWVRQAPGKGLEWVSLIYFDGRNKYYADSVKGRFTISRDNSKNTLYLQMNSLRAEDTAVYYCARGGGYNWFDPWGQGTLVTVSS VL: DIQMTQSPSSLSASVGDRVTITCRASQSINNYLSWYQQKPGKAPKLLIYLASNLQSGVPSRFSGNGSGTDFTLTISSLQPEDFATYYCQLSYRSPFTFGPGTKVDVK
Result: 7.73 nM
